B1: Homeobox protein cut-like 1, residues 941 to 1008; numbered along this chain, P39880 (parent)
chain: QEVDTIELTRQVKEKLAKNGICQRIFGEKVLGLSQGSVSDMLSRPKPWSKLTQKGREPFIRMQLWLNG

# Variants of: B1
# Experiment notes: abundance fitness (aPCA) (normalised: wild type 0, dead -1); higher = more abundant; growth selection in yeast, the domain comes from the species named
# Condition set: Homo sapiens
Note to self: class = bucket of abundance fitness, per bottom bin = under -0.2, middle bin = from -0.2 up to -0.08, top bin = -0.08 and over

Below are worked cases with known answers.
| Variant label | Assigned class |
| --- | --- |
| N19V | top bin |
| K46N | bottom bin |
| S37I | top bin |
| R44E | middle bin |

Consider the record given below.
Query: Classify this variant: `G32E`
Result: bottom bin
